study target: sodium-taurocholate cotransporting polypeptide (NTCP) (Homo sapiens)
Sequence (Q14973 whole entry): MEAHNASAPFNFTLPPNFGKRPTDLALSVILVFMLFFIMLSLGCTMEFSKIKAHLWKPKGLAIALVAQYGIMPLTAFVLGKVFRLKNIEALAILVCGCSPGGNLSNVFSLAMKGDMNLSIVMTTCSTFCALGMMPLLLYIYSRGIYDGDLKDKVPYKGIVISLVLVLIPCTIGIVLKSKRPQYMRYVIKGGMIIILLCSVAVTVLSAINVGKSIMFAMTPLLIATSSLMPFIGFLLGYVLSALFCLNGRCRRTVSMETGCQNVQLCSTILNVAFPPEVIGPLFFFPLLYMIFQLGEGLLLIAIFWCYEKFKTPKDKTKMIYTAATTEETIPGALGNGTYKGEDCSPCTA
assay details: NTCP inhibition, taurocholate uptake in CHO cells
Type: in vitro ADME
test parameters: probe taurocholate, CHO cells
Square brackets hold non-standard residues; d marks the D form. Peptide text beside a SMILES is read from it. MeBmt = C/C=C/C[C@@H](C)[C@@H](O)[C@H](NC)C(=O)O; NEtVal = CCN[C@H](C(=O)O)C(C)C; NMeL = CN[C@@H](CC(C)C)C(=O)O; NMeV = CN[C@H](C(=O)O)C(C)C; dHiv = CC(C)[C@@H](O)C(=O)O; NMeA = CN[C@@H](C)C(=O)O; dNMeA = CN[C@H](C)C(=O)O; Abu = CC[C@H](N)C(=O)O
Could you please report measured IC50 for the items listed next?
Just the number plus its unit, please.

Form field IC50, entry C/C=C/C[C@@H](C)[C@@H](O)[C@H]1C(=O)N[C@@H](CC)C(=O)N(C)[C@H](C)C(=O)N(C)[C@@H](C(C)C)C(=O)N[C@@H](C(C)C)C(=O)N(C)[C@@H](C)C(=O)N[C@@H](C)C(=O)O[C@H](C(C)C)C(=O)N(C)[C@@H](CC(C)C)C(=O)N[C@@H](CC(C)C)C(=O)N(C)[C@@H](C(C)C)C(=O)N1C [(Ie)] (cyclo(A[dHiv][NMeL]L[NMeV][MeBmt][Abu][dNMeA][NMeV]V[NMeA])) : 26 µM

Form field IC50, entry C/C=C/C[C@@H](C)[C@@H](O)[C@H]1C(=O)N[C@@H](CC)C(=O)N(C)[C@H](C)C(=O)N(CC)[C@@H](C(C)C)C(=O)N[C@@H](C(C)C)C(=O)N(C)[C@@H](CC(C)C)C(=O)N[C@@H](C)C(=O)N[C@H](C)C(=O)N(C)[C@@H](CC(C)C)C(=O)N(C)[C@@H](CC(C)C)C(=O)N(C)[C@@H](C(C)C)C(=O)N1C [Debio 025, [D-MeAla]^3-[EtVal]^4-CsA, reference compound] : 3.2 µM

Form field IC50, entry C/C=C/C[C@@H](C)[C@@H](O)[C@H]1C(=O)N[C@@H](CC)C(=O)N(C)[C@H](C)C(=O)N(CC)[C@@H](C(C)C)C(=O)N[C@@H](CC(C)C)C(=O)N(C)[C@@H](CC(C)C)C(=O)N[C@@H](C)C(=O)O[C@H](C(C)C)C(=O)N(C)[C@@H](CC(C)C)C(=O)N[C@@H](CC(C)C)C(=O)N(C)[C@@H](C(C)C)C(=O)N1C [(Ib)] (cyclo(A[dHiv][NMeL]L[NMeV][MeBmt][Abu][dNMeA][NEtVal]L[NMeL])) : 65 µM

Form field IC50, entry C/C=C/C[C@@H](C)[C@@H](O)[C@H]1C(=O)N[C@@H](CC)C(=O)N(C)[C@H](C)C(=O)N(C)[C@@H](C(C)C)C(=O)N[C@@H](CC(C)C)C(=O)N(C)[C@@H](CC(C)C)C(=O)N[C@@H](C)C(=O)O[C@H](C(C)C)C(=O)N(C)[C@@H](CC(C)C)C(=O)N[C@@H](CC(C)C)C(=O)N(C)[C@@H](C(C)C)C(=O)N1C [(Id)] (cyclo(A[dHiv][NMeL]L[NMeV][MeBmt][Abu][dNMeA][NMeV]L[NMeL])) : 2.5 µM

Ref: patent US8501683B2
